Each entry below carries its reported pIC50.
Target: KAT-5 (Homo sapiens (Human))
Sequence (Q92993 other isoform, or with tags, fused parts or gaps): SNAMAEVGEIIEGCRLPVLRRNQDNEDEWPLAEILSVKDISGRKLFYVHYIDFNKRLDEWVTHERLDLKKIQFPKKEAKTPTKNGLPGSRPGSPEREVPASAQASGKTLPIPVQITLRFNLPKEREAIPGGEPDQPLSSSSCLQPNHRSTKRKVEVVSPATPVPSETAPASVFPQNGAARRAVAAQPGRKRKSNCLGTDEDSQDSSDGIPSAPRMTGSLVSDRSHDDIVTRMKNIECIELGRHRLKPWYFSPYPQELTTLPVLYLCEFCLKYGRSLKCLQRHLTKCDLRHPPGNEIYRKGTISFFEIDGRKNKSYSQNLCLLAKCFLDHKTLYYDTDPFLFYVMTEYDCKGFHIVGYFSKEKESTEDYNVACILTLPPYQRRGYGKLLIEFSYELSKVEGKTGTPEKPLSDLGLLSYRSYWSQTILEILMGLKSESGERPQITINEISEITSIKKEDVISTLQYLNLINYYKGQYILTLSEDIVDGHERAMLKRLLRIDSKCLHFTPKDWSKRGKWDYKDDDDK
Method Description: KAT-5 biochemical inhibition assay (SAMDI mass spectrometry)
pIC50: −log10 of the molar value.

Guide cases for pIC50, answers given:
Molecule	pIC50
Cc1c(-c2cc(Cl)c(F)c(C(=O)NNS(=O)(=O)CC3CCCCC3)c2)ncn1C	> 5.00
Cn1cnc(-c2cc(Cl)c(F)c(C(=O)NNS(=O)(=O)CC3CCOC3)c2)c1 (stereo not drawn)	> 5.00
CN1CCN([C@H]2CC[C@@H](CS(=O)(=O)NNC(=O)c3cc(-c4cn(C)cn4)cc(Cl)c3F)CC2)C1=O	> 5.00
Cn1cnc(-c2cc(Cl)c(F)c(C(=O)NNS(=O)(=O)CC3CCN(C(=O)CO)C3)c2)c1 (stereo not drawn)	4.30 to 5.00

Consider now this further molecule.
# query: pIC50 of entry CN(C)C(=O)NC1CCCC(CS(=O)(=O)NNC(=O)c2cc(-c3cn(C)cn3)cc(Cl)c2F)C1 (stereo not drawn)
> 5.00

----------
Each entry below carries its reported pIC50.
Target: KAT-7 (Homo sapiens (Human))
Sequence (O95251 other isoform, or with tags, fused parts or gaps): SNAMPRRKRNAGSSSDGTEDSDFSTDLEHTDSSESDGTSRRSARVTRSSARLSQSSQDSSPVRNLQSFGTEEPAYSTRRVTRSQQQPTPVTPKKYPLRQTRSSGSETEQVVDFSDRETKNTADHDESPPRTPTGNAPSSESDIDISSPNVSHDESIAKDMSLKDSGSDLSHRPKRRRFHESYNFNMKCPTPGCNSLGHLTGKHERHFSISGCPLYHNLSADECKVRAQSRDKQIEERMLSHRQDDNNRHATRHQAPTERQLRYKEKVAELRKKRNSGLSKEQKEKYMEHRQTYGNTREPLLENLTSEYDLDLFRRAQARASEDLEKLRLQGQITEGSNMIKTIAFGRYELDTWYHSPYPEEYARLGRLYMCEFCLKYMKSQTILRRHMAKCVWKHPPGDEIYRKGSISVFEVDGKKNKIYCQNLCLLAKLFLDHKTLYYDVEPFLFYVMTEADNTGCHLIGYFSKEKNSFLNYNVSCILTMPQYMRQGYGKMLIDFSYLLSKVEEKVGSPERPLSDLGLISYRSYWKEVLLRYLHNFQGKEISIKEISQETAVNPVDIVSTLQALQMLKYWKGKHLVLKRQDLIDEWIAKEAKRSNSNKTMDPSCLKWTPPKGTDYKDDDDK
Method Description: KAT-7 biochemical inhibition assay (SAMDI mass spectrometry)
pIC50: −log10 of the molar value.

Guide cases for pIC50, answers given:
Compound	Target	pIC50
Cn1cnc(-c2cc(Cl)c(F)c(C(=O)NNS(=O)(=O)CCC3CCOCC3)c2)c1 [Compound I-244]	KAT-7 (Homo sapiens (Human))	> 5.00
CC1CCC(CS(=O)(=O)NNC(=O)c2cc(-c3cn(C)cn3)cc(Cl)c2F)CC1 (stereo not drawn) [Compound I-313]	KAT-7 (Homo sapiens (Human))	> 5.00

Lab note: need pIC50 with KAT-7 (Homo sapiens (Human)) for entry Cn1cnc(-c2cc(Cl)c(F)c(C(=O)NNS(=O)(=O)c3cccc(OCc4ccccc4)n3)c2)c1 [Compound I-375] , please look it up.
> 5.00

----------
Target: KAT-5 (Homo sapiens (Human))
Method Description: KAT-5 biochemical inhibition assay (SAMDI mass spectrometry)
pIC50: −log10 of the molar value.
Each entry below carries its reported pIC50.

Molecule	Target	pIC50
CN(C(=O)C1CCC1)C1CCCC(CS(=O)(=O)NNC(=O)c2cc(-c3cn(C)cn3)cc(Cl)c2F)C1 (stereo not shown)	KAT-5 (Homo sapiens (Human))	> 5.00

# query: pIC50 of entry CC1CCCC(CS(=O)(=O)NNC(=O)c2cc(-c3cn(C)cn3)cc(Cl)c2F)C1 (stereo not shown)
> 5.00

# query: pIC50 of entry Cn1cnc(-c2cc(Cl)c(F)c(C(=O)NNS(C)(=O)=O)c2)c1
< 4.00

# query: pIC50 of entry Cn1cnc(-c2cc(Cl)c(F)c(C(=O)NNS(=O)(=O)c3c(F)cccc3F)c2)c1
> 5.00

----------
Target: KAT-5 (Homo sapiens (Human))
Method Description: KAT-5 biochemical inhibition assay (SAMDI mass spectrometry)
Description: KAT-5. Enzyme assay buffer was 50 mM Tris pH 8.0, 0.002% Tween20, 0.005% bovine skin gelatin, and 1 mM dithiothreitol (DTT). For determination of IC50 values, compounds were serially diluted with 2% (v/v) DMSO in the final reaction, pre-incubating each dilution of each compound with 40 μL of assay buffer containing KAT-5 enzyme (9 nM final concentration). 10 μL of assay buffer containing 1 μM peptide substrate and 0.5 μM acetyl coenzyme A (final concentrations) was added. […]
Measured Property: IC50

Guide cases for IC50, answers given:
Molecule	IC50
CC(C)S(=O)(=O)N1CC(CS(=O)(=O)NNC(=O)c2cc(-c3cn(C)cn3)cc(Cl)c2F)C1	10 to 50 µM
CCS(=O)(=O)NNC(=O)c1cc(-c2cn(C)cn2)cc(Cl)c1F	10 to 50 µM
Cn1cnc(-c2cc(Cl)c(F)c(C(=O)NNS(=O)(=O)C[C@H]3CCOC3)c2)c1	< 10 µM
Cn1cnc(-c2cc(Cl)c(F)c(C(=O)NNS(=O)(=O)CC3CCCC(NC(=O)Cc4ccncc4)C3)c2)c1 (centres unmarked)	< 10 µM

# query: IC50 of entry Cn1cnc(-c2cc(Cl)c(F)c(C(=O)NNS(=O)(=O)CC3CCCN(C(=O)C4CCC4)C3)c2)c1 (centres unmarked)
< 10 µM

# query: IC50 of entry COc1ccccc1S(=O)(=O)NNC(=O)c1cc(-c2cn(C)cn2)cc(Cl)c1F
< 10 µM

# query: IC50 of entry CN(C(=O)OC(C)(C)C)C1CCCC(CS(=O)(=O)NNC(=O)c2cc(-c3cn(C)cn3)cc(Cl)c2F)C1 (centres unmarked)
< 10 µM

# query: IC50 of entry CN(C(=O)OC(C)(C)C)c1cccc(S(=O)(=O)NNC(=O)c2cc(-c3cn(C)cn3)cc(Cl)c2F)c1
< 10 µM

# query: IC50 of entry Cn1cnc(-c2cc(Cl)c(F)c(C(=O)NNS(=O)(=O)CC3CCCNC3)c2)c1 (centres unmarked)
10 to 50 µM

----------
Target: KAT-8 (Homo sapiens (Human), UniProt Q9H7Z6)
Sequence (Q9H7Z6 other isoform, or with tags, fused parts or gaps): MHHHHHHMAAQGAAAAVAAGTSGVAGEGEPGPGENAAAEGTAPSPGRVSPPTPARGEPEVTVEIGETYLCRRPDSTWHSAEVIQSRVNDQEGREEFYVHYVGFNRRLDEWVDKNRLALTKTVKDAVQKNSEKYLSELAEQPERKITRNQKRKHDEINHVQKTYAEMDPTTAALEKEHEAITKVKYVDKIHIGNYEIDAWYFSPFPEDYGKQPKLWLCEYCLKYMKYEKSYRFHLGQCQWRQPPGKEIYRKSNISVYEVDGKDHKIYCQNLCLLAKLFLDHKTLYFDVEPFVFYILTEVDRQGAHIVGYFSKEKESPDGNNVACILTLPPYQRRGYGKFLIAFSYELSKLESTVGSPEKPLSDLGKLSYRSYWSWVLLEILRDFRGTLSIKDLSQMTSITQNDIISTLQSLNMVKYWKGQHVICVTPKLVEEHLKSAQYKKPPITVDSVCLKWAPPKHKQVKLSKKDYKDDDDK
Method Description: KAT-8 biochemical inhibition assay (SAMDI mass spectrometry)
pIC50: −log10 of the molar value.
Measured Property: pIC50

Guide cases for pIC50, answers given:
Compound	pIC50
Cn1cnc(-c2cc(Cl)c(F)c(C(=O)NNS(=O)(=O)CC3CCCC(NC(=O)c4ccncc4)C3)c2)c1 (stereo not shown)	4.30 to 5.00
CN(C)C(=O)CS(=O)(=O)NNC(=O)c1cc(-c2cn(C)cn2)cc(Cl)c1F	4.30 to 5.00
Cc1c(-c2cc(Cl)c(F)c(C(=O)NNS(=O)(=O)CC3CCCCC3)c2)ncn1C	< 4.00

Consider now this further compound.
# query: pIC50 of entry Cn1cnc(-c2cc(Cl)c(F)c(C(=O)NNS(=O)(=O)c3c(F)cccc3F)c2)c1
4.30 to 5.00

----------
System: LP1 cells
Method Description: Long term proliferation assay (14-day), LP1
Type: cell-based
Test Context: Homo sapiens, LP-1, 336 h; LP1, MM; 14-day timepoint; absolute IC50
Description: Long term proliferation assay. A panel of multiple myeloma (MM) and acute myeloid leukemia (AML) cell lines were tested in 14-day proliferation assays. […] Viable cell number was determined at 0, 4, 7, 11, and 14 days using Calcein staining and using an Accumen instrument to enumerate the number of cells. […] Total cell number is expressed as split-adjusted viable cells per well. […]
Measured Property: IC50

# query: IC50 of entry COCc1cc(Cl)c(F)c(C(=O)NNS(=O)(=O)c2cccc(O)c2)c1
≤ 10 µM

----------
Target: KAT-8 (Homo sapiens (Human))
Method Description: KAT-8 biochemical inhibition assay (SAMDI mass spectrometry)
Each entry below carries its reported IC50.

Compound	IC50
CC(=O)N[C@H]1CC[C@@H](CS(=O)(=O)NNC(=O)c2cc(-c3cn(C)cn3)cc(Cl)c2F)CC1	10 to 50 µM
Cc1cc(-c2cn(C)cn2)cc(C(=O)NNS(=O)(=O)Cc2ccccc2)c1F	> 100 µM
CCC(=O)N[C@H]1CC[C@H](CS(=O)(=O)NNC(=O)c2cc(-c3cn(C)cn3)cc(Cl)c2F)CC1	10 to 50 µM
CC(C)S(=O)(=O)NNC(=O)c1cc(-c2cn(C)cn2)cc(Cl)c1F	> 100 µM
CN(C)C(=O)N(C)C1CCCC(CS(=O)(=O)NNC(=O)c2cc(-c3cn(C)cn3)cc(Cl)c2F)C1 (stereo not drawn)	10 to 50 µM

# query: IC50 of entry CC(C)NC(=O)N1CCC(CS(=O)(=O)NNC(=O)c2cc(-c3cn(C)cn3)cc(Cl)c2F)C1 (stereo not drawn)
10 to 50 µM

----------
Each entry below carries its reported IC50.
Target: KAT-8 (Homo sapiens (Human))
Method Description: KAT-8 biochemical inhibition assay (SAMDI mass spectrometry)

Compound	Measured Value
CC(C)NC(=O)N1CCCC(CS(=O)(=O)NNC(=O)c2cc(-c3cn(C)cn3)cc(Cl)c2F)C1 (centres unmarked)	10 to 50 µM
CCn1cc(S(=O)(=O)NNC(=O)c2cc(-c3cn(C)cn3)cc(Cl)c2F)cn1	> 100 µM

Lab note: need IC50 with KAT-8 (Homo sapiens (Human)) for entry CNC(=O)N1CC[C@H](CS(=O)(=O)NNC(=O)c2cc(-c3cn(C)cn3)cc(Cl)c2F)C1 , please look it up.
10 to 50 µM

Lab note: need IC50 with KAT-8 (Homo sapiens (Human)) for entry CCOC1CCC(CS(=O)(=O)NNC(=O)c2cc(-c3cn(C)cn3)cc(Cl)c2F)CC1 (centres unmarked) , please look it up.
10 to 50 µM

Lab note: need IC50 with KAT-8 (Homo sapiens (Human)) for entry COc1ccc(CN(C)C(=O)N2CC(CS(=O)(=O)NNC(=O)c3cc(-c4cn(C)cn4)cc(Cl)c3F)C2)cc1 , please look it up.
10 to 50 µM

Lab note: need IC50 with KAT-8 (Homo sapiens (Human)) for entry COCCn1nc(-c2cc(Cl)c(F)c(C(=O)NNS(=O)(=O)CC3CCCCC3)c2)cc1C , please look it up.
10 to 50 µM

Lab note: need IC50 with KAT-8 (Homo sapiens (Human)) for entry Cn1cnc(-c2cc(Cl)c(F)c(C(=O)NNS(=O)(=O)CC3CCCC3)c2)c1 , please look it up.
50 to 100 µM

Lab note: need IC50 with KAT-8 (Homo sapiens (Human)) for entry COCCn1cnc(-c2cc(C)c(F)c(C(=O)NNS(=O)(=O)C3CCOCC3)c2)c1 , please look it up.
> 100 µM
